TESTED_TARGET: T1, human MCH-2R (human, UniProt Q969V1 1-340)
T1 construct: Function: 293AEQ17/MCH-2R cells; also called hMCH-2R
T1 sequence (Q969V1 whole entry): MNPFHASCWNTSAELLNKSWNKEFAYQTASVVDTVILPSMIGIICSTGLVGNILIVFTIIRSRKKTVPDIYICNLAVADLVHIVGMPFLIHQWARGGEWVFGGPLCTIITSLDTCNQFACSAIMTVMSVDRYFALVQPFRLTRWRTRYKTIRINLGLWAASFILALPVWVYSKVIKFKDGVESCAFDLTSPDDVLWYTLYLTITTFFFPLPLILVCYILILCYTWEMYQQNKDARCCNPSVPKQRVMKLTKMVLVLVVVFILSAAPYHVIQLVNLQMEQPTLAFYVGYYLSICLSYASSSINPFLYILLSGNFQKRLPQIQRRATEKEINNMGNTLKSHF
ASSAY_SUMMARY: SPA, displacement of [125I]-[Phe13,Tyr19]-hMCH, MCH-2R membranes
pIC50: −log10 of the molar value. Positions of bridges follow the written chain, without caps; N, C: chain ends. Non-standard residues stand in square brackets, D forms with d. No end group written: not given here. Cha = N[C@@H](CC1CCCCC1)C(=O)O
MEASURED_ENDPOINT: pIC50

Example cases with answers are listed next.
{"BINDER": "XCXLNRVYRPC (HELM PEPTIDE1{[ac].[dR].C.[Nle].L.N.R.V.Y.R.P.C.[am]}$PEPTIDE1,PEPTIDE1,3:R3-12:R3$$$V2.0; SMILES CCCC[C@@H]1NC(=O)[C@@H](NC(=O)[C@@H](CCCNC(=N)N)NC(C)=O)CSSC[C@@H](C(N)=O)NC(=O)[C@@H]2CCCN2C(=O)[C@H](CCCNC(=N)N)NC(=O)[C@H](Cc2ccc(O)cc2)NC(=O)[C@H](C(C)C)NC(=O)[C@H](CCCNC(=N)N)NC(=O)[C@H](CC(N)=O)NC(=O)[C@H](CC(C)C)NC1=O) [SEQ. ID. NO. 31 (D-Arg^6, Nle^8, Asn^10 analog of Ac-hMCH(6-16)-NH2)]", "MEASURED_ENDPOINT": "pIC50", "ENDPOINT_RESULT": 5.80}
{"BINDER": "DFDMLRCMLGRVYRPCWQV (disulfide 7-16 (inferred)) [human MCH]", "MEASURED_ENDPOINT": "pIC50", "ENDPOINT_RESULT": 9.30}
{"BINDER": "XCMLNRVYRPC (HELM PEPTIDE1{[ac].[dR].C.M.L.N.R.V.Y.R.P.C.[am]}$PEPTIDE1,PEPTIDE1,3:R3-12:R3$$$V2.0; SMILES CSCC[C@@H]1NC(=O)[C@@H](NC(=O)[C@@H](CCCNC(=N)N)NC(C)=O)CSSC[C@@H](C(N)=O)NC(=O)[C@@H]2CCCN2C(=O)[C@H](CCCNC(=N)N)NC(=O)[C@H](Cc2ccc(O)cc2)NC(=O)[C@H](C(C)C)NC(=O)[C@H](CCCNC(=N)N)NC(=O)[C@H](CC(N)=O)NC(=O)[C@H](CC(C)C)NC1=O) [SEQ. ID. NO. 29 (D-Arg^6, Asn^10 analog of Ac-hMCH(6-16)-NH2)]", "MEASURED_ENDPOINT": "pIC50", "ENDPOINT_RESULT": 5.48}
{"BINDER": "RCMLXRVYRPC (HELM PEPTIDE1{[ac].R.C.M.L.[Cit].R.V.Y.R.P.C.[am]}$PEPTIDE1,PEPTIDE1,3:R3-12:R3$$$V2.0; SMILES CSCC[C@@H]1NC(=O)[C@@H](NC(=O)[C@H](CCCNC(=N)N)NC(C)=O)CSSC[C@@H](C(N)=O)NC(=O)[C@@H]2CCCN2C(=O)[C@H](CCCNC(=N)N)NC(=O)[C@H](Cc2ccc(O)cc2)NC(=O)[C@H](C(C)C)NC(=O)[C@H](CCCNC(=N)N)NC(=O)[C@H](CCCNC(N)=O)NC(=O)[C@H](CC(C)C)NC1=O, also called Cit^10 peptide) [SEQ. ID. NO. 27 (Cit^10 analog of Ac-hMCH(6-16)-NH2)]", "MEASURED_ENDPOINT": "pIC50", "ENDPOINT_RESULT": 6.89}

(I) Ac-RCMLNRVYRPC-NH2 (disulfide 2-11 (inferred), also called Asn^10 peptide) [SEQ. ID. NO. 25 (Asn^10 analog of Ac-hMCH(6-16)-NH2)]
(II) Ac-RCML[Cha]RVYRPC-NH2 (disulfide 2-11) [SEQ. ID. NO. 19 (Cha^10 analog of Ac-hMCH(6-16)-NH2)]
(III) Ac-RCMLPRVYRPC-NH2 (disulfide 2-11 (inferred)) [SEQ. ID. NO. 22 (Pro^10 analog of Ac-hMCH(6-16)-NH2)]
(IV) RCMLXRVYRPC (N-terminal acetyl; Nle (norleucine) at position 10; C-terminal amide; disulfide cycle) [SEQ. ID. NO. 18 (Nle^10 analog of Ac-hMCH(6-16)-NH2)]
rank_up(items): orders items by reported pIC50 in ascending numerical order. Submit the labels in the order that the ranking request calls for.
III, I, II, IV
